system: 186277-243-T-J2-PDC spheroids with HUVEC/MSC, viability; experiment: Anticancer human tumor 186277-243-T-J2-PDC patient-derived colon adenocarcinoma cell line growth inhibition [CLK]; details: second compound 0.1 µM; first compound 0.0316 µM; active compounds read low
READOUT LABEL: viability, T/C (%)

COMPOUND	TEST RESULT
CC(Nc1ccc2c(c1)OCCn1cc(N3C(=O)OCC3C(F)F)nc1-2)C(N)=O (stereo not drawn) + CNC(=O)c1ccc(Nc2nc(OC3CCCC3)c3c(-c4ccc5nc(C)oc5c4)c[nH]c3n2)c(OC)c1	53.9
COC1C=CCC(C)C(C)S(=O)(=O)NC(=O)c2ccc3c(c2)N(CC2CCC21)CC1(CCCc2cc(Cl)ccc21)CO3 (stereo not drawn) + CN1CCN(c2cc(C(=O)Nc3cc4cc(-c5cnn(C)c5)ccc4cn3)ccn2)CC1	87.5
Nc1ccccc1NC(=O)c1ccc(CNC(=O)OCc2cccnc2)cc1 + CNC(=O)c1ccc(Nc2nc(OC3CCCC3)c3c(-c4ccc5nc(C)oc5c4)c[nH]c3n2)c(OC)c1	91.9

----------
test system: 186277-243-T-J2-PDC spheroids with HUVEC/MSC, viability; assay: Anticancer human tumor 186277-243-T-J2-PDC cell line growth inhibition [CLK]; conditions: second compound 10 µM; first compound 0.316 µM; active = viability on the fitted dose curve at most 10% of control; inactive = the rest;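 note: compound exposure lasted seven days before readout; 100% = DMSO vehicle control wells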
Possible outcomes: t for active, f for inactive

MOLECULE	LABEL VALUE
CCCS(=O)(=O)Nc1ccc(F)c(C(=O)c2c[nH]c3ncc(-c4ccc(Cl)cc4)cc23)c1F + CNC(=O)c1ccc(Nc2nc(OC3CCCC3)c3c(-c4ccc5nc(C)oc5c4)c[nH]c3n2)c(OC)c1	f
CC(CO)NC(=O)c1cc(-c2ccc(Cl)cc2)nn(-c2cnn(C)c2)c1=O (stereo not given) + CN1CCN(c2cc(C(=O)Nc3cc4cc(-c5cnn(C)c5)ccc4cn3)ccn2)CC1	t
O=c1[nH]cc(F)c(=O)[nH]1 + CN1CCN(c2cc(C(=O)Nc3cc4cc(-c5cnn(C)c5)ccc4cn3)ccn2)CC1	t
CC1COCCN1c1cc(C2(S(C)(=N)=O)CC2)nc(-c2ccnc3[nH]ccc23)n1 (stereo not given) + CNC(=O)c1ccc(Nc2nc(OC3CCCC3)c3c(-c4ccc5nc(C)oc5c4)c[nH]c3n2)c(OC)c1	f
COc1ccc([C@@H](O)c2cc(-c3ncnc4cc(N5CCOCC5)ccc34)c(F)cc2Cl)nn1 + CNC(=O)c1ccc(Nc2nc(OC3CCCC3)c3c(-c4ccc5nc(C)oc5c4)c[nH]c3n2)c(OC)c1	f

----------
tested on: 186277-243-T-J2-PDC spheroids with HUVEC/MSC, viability; assay: Anticancer human tumor 186277-243-T-J2-PDC cell line growth inhibition [CLK]; conditions: second compound 0.1 µM; first compound 0.1 µM; active compounds read low;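 note: compound exposure lasted seven days before readout; 100% = DMSO vehicle control wells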
READOUT LABEL: viability, T/C (%)

COMPOUND	TEST RESULT
CC(Nc1ccc2c(c1)OCCn1cc(N3C(=O)OCC3C(F)F)nc1-2)C(N)=O (stereo unspecified) + CNC(=O)c1ccc(Nc2nc(OC3CCCC3)c3c(-c4ccc5nc(C)oc5c4)c[nH]c3n2)c(OC)c1	39.9
CC(CO)NC(=O)c1cc(-c2ccc(Cl)cc2)nn(-c2cnn(C)c2)c1=O (stereo unspecified) + CNC(=O)c1ccc(Nc2nc(OC3CCCC3)c3c(-c4ccc5nc(C)oc5c4)c[nH]c3n2)c(OC)c1	70.5
Nc1ccn(C2OC(CO)C(O)C2(F)F)c(=O)n1 (stereo unspecified) + CNC(=O)c1ccc(Nc2nc(OC3CCCC3)c3c(-c4ccc5nc(C)oc5c4)c[nH]c3n2)c(OC)c1	13.3
COc1ccc([C@@H](O)c2cc(-c3ncnc4cc(N5CCOCC5)ccc34)c(F)cc2Cl)nn1 + CNC(=O)c1ccc(Nc2nc(OC3CCCC3)c3c(-c4ccc5nc(C)oc5c4)c[nH]c3n2)c(OC)c1	62.5
Nc1ccccc1NC(=O)c1ccc(CNC(=O)OCc2cccnc2)cc1 + CN1CCN(c2cc(C(=O)Nc3cc4cc(-c5cnn(C)c5)ccc4cn3)ccn2)CC1	78
CCc1c2c(nc3ccc(O)cc13)-c1cc3c(c(=O)n1C2)COC(=O)[C@]3(O)CC + CN1CCN(c2cc(C(=O)Nc3cc4cc(-c5cnn(C)c5)ccc4cn3)ccn2)CC1	17.5
CC1COCCN1c1cc(C2(S(C)(=N)=O)CC2)nc(-c2ccnc3[nH]ccc23)n1 (stereo unspecified) + CN1CCN(c2cc(C(=O)Nc3cc4cc(-c5cnn(C)c5)ccc4cn3)ccn2)CC1	80.5
Nc1ccccc1NC(=O)c1ccc(CNC(=O)OCc2cccnc2)cc1 + CNC(=O)c1ccc(Nc2nc(OC3CCCC3)c3c(-c4ccc5nc(C)oc5c4)c[nH]c3n2)c(OC)c1	96.8
O=c1[nH]cc(F)c(=O)[nH]1 + CNC(=O)c1ccc(Nc2nc(OC3CCCC3)c3c(-c4ccc5nc(C)oc5c4)c[nH]c3n2)c(OC)c1	66.2
CCCS(=O)(=O)Nc1ccc(F)c(C(=O)c2c[nH]c3ncc(-c4ccc(Cl)cc4)cc23)c1F + CNC(=O)c1ccc(Nc2nc(OC3CCCC3)c3c(-c4ccc5nc(C)oc5c4)c[nH]c3n2)c(OC)c1	77.5
CC1(C)CCC(CN2CCN(c3ccc(C(=O)NS(=O)(=O)c4ccc(NCC5CCOCC5)c([N+](=O)[O-])c4)c(Oc4cnc5[nH]ccc5c4)c3)CC2)=C(c2ccc(Cl)cc2)C1 + CN1CCN(c2cc(C(=O)Nc3cc4cc(-c5cnn(C)c5)ccc4cn3)ccn2)CC1	76.3
